experiment: yeast display, Sf9 membrane polyspecificity reagent, FACS + sequencing; frameworks hold sequencing errors
assayEndpoint: polyreactivity (PSR sort gate)

> print(dat)
                             sequencestring            datavalue
1  QVHLVESGGGLVQAGGSLRLSCAASGRTFFRYAMGWYTQAPGKERELVAAITRSGGSTYYADSVKGRFTISRDNAKNTVYLEMNSLKPEDTAVYYCAAPREAYSRGYDSWGQGTQVTVSS  high polyreactivity
2  QVQLVESGGGLVQAGGSLRLSCAASGNIFVRYAMGWYRQAPGKERELVAAISRGGRTNYADSVKGRFTISRDNAKNTVYLQMNSLKPEDTAVYYCAADVRYHFYYWGQGTQVTVSS  high polyreactivity
3  QVQLVESGGGLVQAGGSLRLSCAASGRTFGVYVMGWYRHAPGKERELVAFITISGGSTNYADSVKGRFTISRDNAKNTVYLQMNSLKPDDTAVYYCAARTYYGYDYWGQGNQVTVSS  high polyreactivity

// provenance: the nanobody polyreactivity screen of Harvey et al. (2022)
